Molecular target: T1, Omicron BA.1 RBD (SARS-CoV-2, UniProt P0DTC2 333-528)
T1 construct: domain: RBD
Assay: ELISA
propertyName: binding result

1. Omi02 (antibody, V domains shown) VH: EVQLVESGAEVKKPGSSVKVSCKASGGTFSSYAINWVRQAPGQGLEWMGGIIPIFRTPHYAQKFQGRVTITADESTGTAYMELSSLRSEDTAVYYCASPSCGGDCPQYLKSSKLDWYFDLWGRGTLVTVSS VL: VIWMTQSPGTLSLSPGERATLSCRASQSVSSTYLAWYQQKPGQAPRLLIYGASSRATGIPDRFSGSGSGTDFTLTISRLEPEDFAVYYCQHYGSSPLTFGQGTRLEIK | binds
2. Omi23 (antibody, V domains shown) VH: QVQLQESGPGLVKSSQTLSLTCTVSGDSISRGGYYWSWIRQHPGKGLEWIGSIYYSGSTYYNPSLKSRFTISVDTSKNQFSLKLSSVTAADTAVYHCAREIGFLDYWGQGTLVTVSS VL: AIQMTQSPSSLSASVGDRVTITCRASQAISNSLAWYQQKPGKAPKLLLYAASTLESGVPSRFSGSGSGTDFTLTISSLQPEDFATYFCQQYYSTPPRTFGQGTKVDIK | binds

This collection of values is drawn from patent US20250154231A1.
